Biological target: T1, EsCas13d, nuclease-dead (Eubacterium siraeum, UniProt B0MS50, R295A;H300A;R849A;H854A)
T1 sequence: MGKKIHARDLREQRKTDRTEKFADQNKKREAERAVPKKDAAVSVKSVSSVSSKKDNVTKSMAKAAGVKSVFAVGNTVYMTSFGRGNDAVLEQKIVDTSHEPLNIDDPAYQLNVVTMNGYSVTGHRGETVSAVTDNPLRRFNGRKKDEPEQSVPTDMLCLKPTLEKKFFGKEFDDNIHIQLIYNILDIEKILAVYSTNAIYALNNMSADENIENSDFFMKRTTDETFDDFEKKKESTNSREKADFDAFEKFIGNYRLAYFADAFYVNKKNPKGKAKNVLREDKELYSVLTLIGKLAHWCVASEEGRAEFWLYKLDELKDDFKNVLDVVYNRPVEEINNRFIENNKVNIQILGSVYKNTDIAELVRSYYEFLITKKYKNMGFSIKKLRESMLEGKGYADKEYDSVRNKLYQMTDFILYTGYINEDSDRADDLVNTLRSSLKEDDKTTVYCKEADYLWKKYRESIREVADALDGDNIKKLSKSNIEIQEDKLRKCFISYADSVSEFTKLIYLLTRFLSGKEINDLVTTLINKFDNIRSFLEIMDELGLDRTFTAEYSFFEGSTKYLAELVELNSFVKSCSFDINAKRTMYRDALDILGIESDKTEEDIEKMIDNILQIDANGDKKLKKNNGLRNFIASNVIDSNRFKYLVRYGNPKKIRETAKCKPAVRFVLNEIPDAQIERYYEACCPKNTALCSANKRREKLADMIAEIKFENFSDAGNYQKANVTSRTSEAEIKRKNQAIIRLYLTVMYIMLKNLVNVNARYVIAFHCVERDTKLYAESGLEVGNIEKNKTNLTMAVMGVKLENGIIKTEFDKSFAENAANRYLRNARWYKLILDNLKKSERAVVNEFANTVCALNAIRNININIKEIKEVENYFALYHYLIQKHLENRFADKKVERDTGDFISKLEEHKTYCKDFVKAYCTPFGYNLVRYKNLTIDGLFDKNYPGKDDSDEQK
Assay: crRNA (strand 1, pre-loaded); Mg2+; 40 mM Tris-HCl pH 7.5, 150 mM NaCl, 6 mM MgCl2, 1 mM DTT, 0.1% Tween-20, 0.2 mg/ml BSA; 25 C; 10 min per concentration, then washed
Details: tags: His6-TwinStrep-SUMO cleaved; N-terminal SNAP kept (SNAP-Surface 488); label: 3' end held by stalled T7 RNA polymerase
value type: Kd (nM)
Dear colleague, please return just the value in nM, with no unit written.

Consider the reported Kd for these binders:
# binder target 1 insC 3' of 22,insA 3' of 5 (mixed) RNA 1: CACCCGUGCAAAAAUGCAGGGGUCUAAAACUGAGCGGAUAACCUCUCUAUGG RNA 2: GGGAAUGGAUCCACAUCUACGAAUUCGUACCCAUAGAGAGGUUAUCCGACUCACCGAGAUCGGAAGAGCACACGU ; its Kd = 19

# binder target 1 C2A,U19C (mixed) RNA 1: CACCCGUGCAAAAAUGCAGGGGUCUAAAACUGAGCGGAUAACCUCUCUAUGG RNA 2: GGGAAUGGAUCCACAUCUACGAAUUCGUACCACAGAGAGGUUAUCCGCUAACCGAGAUCGGAAGAGCACACGU ; its Kd = 22.1

# binder target 1 insC 3' of 22,insG 3' of 16 (mixed) RNA 1: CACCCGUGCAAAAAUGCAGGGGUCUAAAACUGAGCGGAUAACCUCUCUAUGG RNA 2: GGGAAUGGAUCCACAUCUACGAAUUCGUACCCAUAGAGGAGGUUAUCCGCUCACCGAGAUCGGAAGAGCACACGU ; its Kd = 75

We now examine a further binder.
# binder target 1 insC 3' of 22,insG 3' of 11 (mixed) RNA 1: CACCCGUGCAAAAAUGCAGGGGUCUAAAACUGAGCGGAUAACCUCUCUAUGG RNA 2: GGGAAUGGAUCCACAUCUACGAAUUCGUACCCAUAGAGAGGUGUAUCCGCUCACCGAGAUCGGAAGAGCACACGU ; its Kd = 41
